# pEC50 per entry
tested-system: TRAP1 enzyme (Homo sapiens, UniProt Q12931)
Sequence (Q12931 60-704): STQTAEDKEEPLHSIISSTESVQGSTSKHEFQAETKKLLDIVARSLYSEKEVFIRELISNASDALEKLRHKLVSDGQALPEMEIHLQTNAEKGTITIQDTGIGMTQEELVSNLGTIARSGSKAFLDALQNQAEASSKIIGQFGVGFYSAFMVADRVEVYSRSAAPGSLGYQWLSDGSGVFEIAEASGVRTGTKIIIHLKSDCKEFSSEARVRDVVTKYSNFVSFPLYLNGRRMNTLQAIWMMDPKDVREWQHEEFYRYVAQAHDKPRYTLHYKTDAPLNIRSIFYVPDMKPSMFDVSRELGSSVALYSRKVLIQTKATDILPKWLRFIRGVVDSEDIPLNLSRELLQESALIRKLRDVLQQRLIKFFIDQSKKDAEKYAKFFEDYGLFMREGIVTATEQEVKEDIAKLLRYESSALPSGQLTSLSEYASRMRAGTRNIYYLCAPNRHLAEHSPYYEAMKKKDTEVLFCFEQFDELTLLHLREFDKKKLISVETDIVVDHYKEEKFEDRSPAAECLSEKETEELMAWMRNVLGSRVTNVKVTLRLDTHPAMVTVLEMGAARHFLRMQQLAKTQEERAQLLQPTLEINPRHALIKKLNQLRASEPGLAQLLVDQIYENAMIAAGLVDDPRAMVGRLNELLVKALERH
assay-procedure: Malachite green phosphate assay of TRAP1 ATPase activity
Assay type: biochemical
conditions-used: TRAP1 ATPase activation, 150 nM Trap1, 20 μM ATP, geometric mean; read-out: Malachite Green Fluor DRC: GeoMean EC50
pEC50: −log10 of the molar value.

# annotated cases, reported pEC50 shown
COc1ccc(NC(=O)c2cnc(C(F)(F)F)[nH]2)cc1S(=O)(=O)Nc1ccccc1C :: > 5.00
CCOC(=O)Cc1ccc(NC(=O)c2ncco2)cc1S(=O)(=O)Nc1ccc(Br)cc1 :: 4.00 to 4.70
COc1ccc(NC(=O)c2cnccc2C)cc1S(=O)(=O)Nc1ccccc1C :: 4.00 to 4.70
CCOC(=O)Cc1ccc(NC(=O)c2cnccc2C)cc1S(=O)(=O)Nc1ccc(C)cc1 :: 4.70 to 5.00
Cc1cccc(C)c1NS(=O)(=O)c1cc(NC(=O)c2cnc(-c3ccccc3)[nH]2)ccc1F :: > 5.00

Input `COc1ccc(NC(=O)c2ncco2)cc1S(=O)(=O)N1CCOCC1` , output reported pEC50.
4.00 to 4.70

Give the value of pEC50 reported for the following: `COc1ccc(NC(=O)c2ccccc2C(F)(F)F)cc1S(=O)(=O)N1CCCCC1`
4.70 to 5.00

Dear colleague, please send me the reported pEC50 for `CC(C)c1ccc(NC(=O)c2cnc(-c3ccccc3)o2)cc1S(=O)(=O)Nc1ccc(Cl)cc1` when you can.
4.70 to 5.00

src = patent US20230174523A1
